Read-out: Monocyte Chemoattractant Protein-1 (MCP1), CCL2 (gene 6347)
Assay: BSK_3C_MCP1: BioMAP Diversity Plus: 3C Assay for Monocyte Chemoattractant Protein-1 (MCP1) Biomarker Activity (AID 2283017)
Settings: primary human endothelial cells (HUVEC); actives raise or lower the signal
The source made the active and inactive calls. The calls were made as follows: active = hit-call score of the fitted dose curve at least 0.9, where 1 is the maximum; inactive = score below 0.9.
Entry note: the call must match one of active, inactive

Challenge: What did the test return for `CN(C)[C@@H]1C(=O)C(C(N)=O)=C(O)[C@@]2(O)C(=O)C3=C(O)c4c(O)cccc4[C@@](C)(O)[C@H]3C[C@@H]12` ?
Response given: inactive

Challenge: Given `Clc1ccccc1Cl` , state the outcome it received in this test.
Response given: inactive

Challenge: Assay result, entry `CC(C)(OOC(C)(C)c1ccccc1)c1ccccc1` — outcome?
Response given: active

Challenge: Tell me the assay call for `N#CC(Br)(Br)C(N)=O` please.
Response given: inactive

Challenge: # lookup: test call for CC(O)CCO (stereo not drawn)
Response given: inactive

* * *

Assay: CCTE_Shafer_MEA_acute_network_burst_percentage: CCTE's Neural Acute Assay for Percentage of Network Bursts, Shafer Lab (AID 2284022);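 also: curves fitted for loss so actives lower network burst percentage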;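 as to outcome: rat primary cortical neuron networks on multiwell MEA recorded 40 min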
Active and inactive are the calls of the source. How the source made its calls: active means hit-call score of the fitted dose curve at least 0.9, where 1 is the maximum; inactive means score below 0.9.
Write down one outcome, taken from 1.0 (active), 0.0 (inactive)

Example results:
compoundSmiles: Cc1cc(N=Nc2ccccc2C)ccc1N
categoryLabel: 0.0
--
compoundSmiles: CC(C)(OOC(C)(C)c1ccccc1)c1ccccc1
categoryLabel: 0.0
--
compoundSmiles: c1ccc(NNc2ccccc2)cc1
categoryLabel: 0.0

Now take the following compound into account.
Challenge: Record lookup: outcome of this test for `CCCCCOC(=O)c1ccccc1C(=O)OCCCCC` ?
Response given: 1.0

* * *

Assay: CCTE_Padilla_ZF_144hpf_TERATOSCORE: (Legacy) CCTE's 144 Hour Post-fertilization zebrafish Assay Teratoscore, Padilla Lab (AID 2283679)
Calls of active or inactive are those of the source. The calls were made as follows: active = hit-call score of the fitted dose curve at least 0.9, where 1 is the maximum; inactive = score below 0.9.
Answer with one of the outcomes class 1 (active), class 0 (inactive)

Consider the following illustrative entries.
compound: CC(C)COC(=O)c1ccccc1C(=O)OCC(C)C
categoryLabel: class 1

compound: [O-][Cl+]O
categoryLabel: class 0

compound: O=Cc1ccco1
categoryLabel: class 0

compound: O=C(N[C@H](c1ccccc1)[C@@H]1CN2CCC1CC2)c1c(Cl)ccc(C(F)(F)F)c1Cl
categoryLabel: class 1

compound: Brc1ccc(Oc2ccccc2)cc1
categoryLabel: class 1

Challenge: For this compound, state the assay outcome: CC(C)(C)C(O)(CCc1ccc(Cl)cc1)Cn1cncn1 (stereo unspecified)
Response given: class 1

Challenge: Record request — test call for `CCCCOC(=O)c1ccccc1C(=O)OCc1ccccc1`
Response given: class 1

Challenge: What was the test verdict on `CCC12COCN1COC2` ?
Response given: class 0

Challenge: Assay outcome for `CN(C)c1ccc(C(=O)c2ccc(N(C)C)cc2)cc1` : what was it?
Response given: class 1

Challenge: Field: outcome | Entry: `COc1cc(C=O)cc2c1[C@H](COC(N)=O)[C@]1(OC(C)=O)ON2C[C@H]2[C@@H]1N2C(C)=O`
Response given: class 0

Challenge: So what was the verdict on `CCOC(=O)[C@]1(c2ccccc2)Oc2ccccc2[C@@H]1N` in this test?
Response given: class 1

Challenge: # lookup: test call for `OCCOCCO`
Response given: class 0

Challenge: What classification did CC(O)CCO (stereo unspecified) end up with in this test?
Response given: class 0

Challenge: Would you mind telling me which call this test gave `CCC[CH2][Sn]([Cl])([CH2]CCC)[CH2]CCC` ?
Response given: class 1

Challenge: Recorded call for `Nc1cc(Cl)cc(C(=O)O)c1Cl` ?
Response given: class 0

Challenge: Could you kindly confirm the outcome this assay logged for `CC(C)(OOC(C)(C)c1ccccc1)c1ccccc1` ?
Response given: class 1

Challenge: Recorded test outcome, item `Nc1ccc(Cl)cc1N`
Response given: class 1

Challenge: What call does the record list for `C[C@]12C=CC3=C4CCC(=O)C=C4CC[C@H]3[C@@H]1CC[C@@H]2O` ?
Response given: class 1

Challenge: What did the test return for CCC(C)c1ccc(O)cc1 (stereo unspecified) ?
Response given: class 1

Challenge: Which outcome was assigned to `Clc1ccc(Cl)c(Cl)c1` in this test?
Response given: class 0

Challenge: # outcome recorded in this test, key = CCCCCCCCCCCCCN1CC(C)OC(C)C1 (stereo unspecified)
Response given: class 1

Challenge: Give the logged outcome of this assay for the following compound: `Clc1ccc(C(c2ccc(Cl)cc2)C(Cl)Cl)cc1`
Response given: class 1

Challenge: Test call, this compound: `CCCCCOC(=O)c1ccccc1C(=O)OCCCCC`
Response given: class 1

Challenge: Which outcome was entered for the compound `COC(=O)c1ccccc1N` in this test?
Response given: class 0

Challenge: Please share the test call associated with `CCCCCCCCn1sccc1=O` .
Response given: class 1

Challenge: Entry `N#CC(Br)Br` : call = ?
Response given: class 0

* * *

Read-out: Vascular cell adhesion molecule 1 (VCAM1), VCAM1 (gene 7412)
Test: BSK_CASM3C_VCAM1: BioMAP Diversity Plus: CASM3C Assay for Vascular cell adhesion molecule 1 (VCAM1) Biomarker Activity (AID 2283055);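 also: VCAM-1 protein level quantified by ELISA on the cells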
Settings: primary human coronary artery smooth muscle cells; actives raise or lower the signal
The source made the active and inactive calls. How the source made its calls: active means hit-call score of the fitted dose curve at least 0.9, where 1 is the maximum; inactive means score below 0.9.
Output constraint: value belongs to active, inactive

Study these solved cases before continuing.
compound: CCCCCCCCOC(=O)c1ccc(C(=O)OCCCCCCCC)c(C(=O)OCCCCCCCC)c1
categoryLabel: inactive
//
compound: CC(C)(C)OOC(C)(C)CCC(C)(C)OOC(C)(C)C
categoryLabel: inactive

Read the next record carefully.
Challenge: Per the assay record, what outcome was assigned to `C1=Cc2cccc3cccc1c23` ?
Response given: inactive

* * *

Experiment: IUF_NPC1b_proliferation_BrdU_72hr: Leibniz Research Institute for Environmental Medicine (IUF) 72-hour Neural Progenitor Cell Bromodeoxyuridine (BrdU) Proliferation Assay (NPC1b) (AID 2284207)
Calls of active or inactive are those of the source. How the source made its calls: active means hit-call score of the fitted dose curve at least 0.9, where 1 is the maximum; inactive means score below 0.9.
measuredProperty: AC50

compound: CNC(=O)Oc1cccc2c1OC(C)(C)C2
measuredProperty: AC50
recordedMeasurement: inactive
//
compound: CC(C)(C)C(O)(CCc1ccc(Cl)cc1)Cn1cncn1 (configuration not stated)
measuredProperty: AC50
recordedMeasurement: inactive
//
compound: CC(C)COC(=O)c1ccccc1C(=O)OCC(C)C
measuredProperty: AC50
recordedMeasurement: inactive
//
compound: [O-][Cl+]O
measuredProperty: AC50
recordedMeasurement: 2180 nM (active)
//
compound: OCCOCCO
measuredProperty: AC50
recordedMeasurement: inactive
//
compound: CCC[CH2][Sn]([Cl])([CH2]CCC)[CH2]CCC
measuredProperty: AC50
recordedMeasurement: 112 nM (active)

--- query ---
Challenge: Tell me AC50 reported for `COC(=O)Nc1nc2ccccc2[nH]1`
Response given: 18400 nM (active)

* * *

Read-out: Monocyte Chemoattractant Protein-1 (MCP1), CCL2 (gene 6347)
Test: BSK_SAg_MCP1: BioMAP Diversity Plus: SAg Assay for Monocyte Chemoattractant Protein-1 (MCP1) Biomarker Activity (AID 2283090)
Conditions: primary human HUVEC with PBMC; actives raise or lower the signal
Activity calls are given as the source filed them. The calls were made as follows: active = hit-call score of the fitted dose curve at least 0.9, where 1 is the maximum; inactive = score below 0.9.
Allowed answers: active, inactive

Reference set, count: 5
compoundSmiles: Nc1ccc([N+](=O)[O-])cc1
categoryLabel: inactive

compoundSmiles: Cn1cc(-c2ccccc2)c(=O)c(-c2cccc(C(F)(F)F)c2)c1
categoryLabel: inactive

compoundSmiles: COP(=S)(OC)SCN1C(=O)c2ccccc2C1=O
categoryLabel: inactive

compoundSmiles: O=[N+]([O-])C(Br)(CO)CO
categoryLabel: active

compoundSmiles: Cc1cccc(N)c1N
categoryLabel: inactive

Challenge: Dear colleague, could you share the recorded outcome for `OCCCl` when you have a moment?
Response given: inactive

Challenge: Query: recorded result category for `CC(C)(OOC(C)(C)c1ccccc1)c1ccccc1` in this test
Response given: active

Challenge: Entry `[As]#[In]` : call = ?
Response given: inactive

* * *

Read-out: sulfotransferase 2A1 (SULT2A1), SULT2A1 (gene 6822)
Experiment: LTEA_HepaRG_SULT2A1: Life Technologies and Expression Analysis (LTEA) Assay for sulfotransferase 2A1 (SULT2A1) using HepaRG (AID 2283531)
Settings: mRNA level, 48 h; actives raise or lower the signal
Protocol: LTEA_HepaRG is a cell based, multiplexed-readout assay that uses HepaRG, a human liver cell line, with measurements taken at 48 hours after chemical dosing on a 96-well plate.LTEA_HepaRG_SULT2A1 is one of 102 assay component(s) measured in the LTEA HepaRG cell culture assay. It is a marker of NR mediated transport.Data from the assay component LTEA_HepaRG_SULT2A1 was analyzed into 1 endpoint. […]
Active and inactive are the calls of the source. How the source made its calls: active means hit-call score of the fitted dose curve at least 0.9, where 1 is the maximum; inactive means score below 0.9.
measuredProperty: AC50

compound: c1ccc(NNc2ccccc2)cc1
AC50: inactive
//
compound: ClC1=C(Cl)[C@]2(Cl)[C@H]3[C@H]([C@@H]4C=C[C@H]3C4)[C@@]1(Cl)C2(Cl)Cl
AC50: inactive
//
compound: O=[N+]([O-])C(Br)(CO)CO
AC50: inactive
//
compound: COP(=S)(OC)SCN1C(=O)c2ccccc2C1=O
AC50: inactive
//
compound: Clc1ccccc1Cl
AC50: inactive

Challenge: Could you please provide reported AC50 for `Nc1ccc(Cl)cc1N` ? Thanks!
Response given: 35.4 µM (active)

Challenge: Tell me its AC50 given `Cn1cc(-c2ccccc2)c(=O)c(-c2cccc(C(F)(F)F)c2)c1` as the entry.
Response given: 9.92 µM (active)
